Ref: patent US20260217703A1

// IC50 lookup, one value per entry
Biological target: hemolysin alpha from Staphylococcus aureus (Staphylococcus aureus, UniProt P09616)
Sequence (P09616 27-319 limits assumed): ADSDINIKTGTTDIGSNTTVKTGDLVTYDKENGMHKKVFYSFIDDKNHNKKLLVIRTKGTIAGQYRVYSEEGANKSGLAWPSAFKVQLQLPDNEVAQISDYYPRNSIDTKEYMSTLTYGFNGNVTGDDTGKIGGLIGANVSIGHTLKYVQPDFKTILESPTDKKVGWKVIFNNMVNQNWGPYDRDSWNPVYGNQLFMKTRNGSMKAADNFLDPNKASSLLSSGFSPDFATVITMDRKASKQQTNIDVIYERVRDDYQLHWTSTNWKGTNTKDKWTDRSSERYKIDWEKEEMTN
Experimental readout: IC50

Compound | Assay target | Experimental readout | Meas value
Cc1cc2[nH]c(=O)c(=O)[nH]c2nc1S(=O)(=O)Nc1ccc(C2=CCCCC2)cc1 [Compound 20] | hemolysin alpha from Staphylococcus aureus (Staphylococcus aureus, UniProt P09616) | IC50 | 100 to 1000 nM
Cc1nc2cc(-c3ccc(NS(=O)(=O)c4nc5[nH]c(=O)c(=O)[nH]c5cc4C)cc3C(F)(F)F)ccc2o1 [Compound 38] | hemolysin alpha from Staphylococcus aureus (Staphylococcus aureus, UniProt P09616) | IC50 | < 30 nM
Cc1cc(NS(=O)(=O)c2nc3[nH]c(=O)c(=O)[nH]c3cc2C)ccc1-c1ccc(F)cc1 [Compound 33] | hemolysin alpha from Staphylococcus aureus (Staphylococcus aureus, UniProt P09616) | IC50 | 100 to 1000 nM
Cc1cc2[nH]c(=O)c(=O)[nH]c2nc1S(=O)(=O)Nc1cnc(-c2cncc(Cl)c2)c(Cl)c1 [Compound 13] | hemolysin alpha from Staphylococcus aureus (Staphylococcus aureus, UniProt P09616) | IC50 | 1000 to 3500 nM
Cc1cc2[nH]c(=O)c(=O)[nH]c2nc1S(=O)(=O)Nc1ccc(OC(F)(F)F)cc1 [Compound 22] | hemolysin alpha from Staphylococcus aureus (Staphylococcus aureus, UniProt P09616) | IC50 | < 30 nM
Cc1nc2ccc(-c3ccc(NS(=O)(=O)c4ccc5[nH]c(=O)c(=O)[nH]c5n4)cc3Cl)cc2[nH]1 [Compound 30] | hemolysin alpha from Staphylococcus aureus (Staphylococcus aureus, UniProt P09616) | IC50 | 1000 to 3500 nM
Cc1cc2[nH]c(=O)c(=O)[nH]c2nc1S(=O)(=O)Nc1ccc(C23CC(C2)C3)cc1 [Compound 23] | hemolysin alpha from Staphylococcus aureus (Staphylococcus aureus, UniProt P09616) | IC50 | < 30 nM
Cc1nc2cc(-c3ccc(NS(=O)(=O)c4nc5[nH]c(=O)c(=O)[nH]c5cc4C)cc3Cl)ccc2o1 [Compound 15] | hemolysin alpha from Staphylococcus aureus (Staphylococcus aureus, UniProt P09616) | IC50 | < 30 nM
C=C(C)c1cc2[nH]c(=O)c(=O)[nH]c2nc1S(=O)(=O)Nc1ccc(OC(F)(F)F)cc1 [Compound 27] | hemolysin alpha from Staphylococcus aureus (Staphylococcus aureus, UniProt P09616) | IC50 | < 30 nM

* * *

Molecular target: S. aureus Alpha hemolysin (Staphylococcus aureus, UniProt P09616)
Sequence (P09616 27-319 limits assumed): as above
pIC50: −log10 of the molar value.
// pIC50 lookup, one value per entry

Smiles text | pIC50
Cc1cc2[nH]c(=O)c(=O)[nH]c2nc1S(=O)(=O)Nc1ccc(-c2ccc3oc(C4CC4)nc3c2)c(Cl)c1 | 7.00 to 7.52
Cc1cc2[nH]c(=O)c(=O)[nH]c2nc1S(=O)(=O)Nc1ccc(C2CCC2)cc1 | 7.00 to 7.52
Cc1cc(NS(=O)(=O)c2nc3[nH]c(=O)c(=O)[nH]c3cc2C)ccc1Br | 6.00 to 7.00
Cc1nc2cc(-c3ccc(NS(=O)(=O)c4nc5[nH]c(=O)c(=O)[nH]c5cc4C)cc3C)ccc2o1 | 7.00 to 7.52
Cc1cc2[nH]c(=O)c(=O)[nH]c2nc1S(=O)(=O)Nc1ccc(C(C)C)cc1 | 6.00 to 7.00
O=c1[nH]c2cc(Br)c(S(=O)(=O)Nc3ccc(OC(F)(F)F)cc3)nc2[nH]c1=O | 6.00 to 7.00
Cc1cc2[nH]c(=O)c(=O)[nH]c2nc1S(=O)(=O)Nc1ccc(-c2ccc3cc[nH]c3c2)c(Cl)c1 | 6.00 to 7.00
Cc1cc2[nH]c(=O)c(=O)[nH]c2nc1S(=O)(=O)Nc1cnc(-c2ccc(F)cc2)c(Cl)c1 | 5.22 to 6.00
Cc1cc2[nH]c(=O)c(=O)[nH]c2nc1S(=O)(=O)Nc1ccc(OC(F)(F)F)cc1 | > 7.52
C=C(C)c1cc2[nH]c(=O)c(=O)[nH]c2nc1S(=O)(=O)Nc1ccc(OC(F)(F)F)cc1 | > 7.52
O=c1[nH]c2ccc(S(=O)(=O)Nc3ccc(-c4ccc(F)cc4)c(Cl)c3)nc2[nH]c1=O | 5.22 to 6.00
